Reference for the values: PubChem BioAssay AID1656

- ASSAY_OVERVIEW: inhibitors of hepatocyte lipid droplet formation, primary screen, imaging, high-throughput imaging, BODIPY stain (AID 1656);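 also: cells counted across two imaged fields per well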
- COND: AML12 mouse hepatocytes, oleate lipid droplets, at 6.5 µM; measured here: cell count, cytotoxicity flag
Out of some 240,000 compounds screened, about 950 (0.4%) were called active. The full list was thinned out, with actives kept by preference.
If the reported cell count equals or exceeds 800 cells, assign t. If not, assign f.

[[record]]
molecule = "O=C(CCCN1C(=O)/C(=C\\c2ccco2)SC1=S)Nc1cccc2ccccc12"
group_label = "f"

[[record]]
molecule = "CCOC(=O)CC1C(=O)NCCN1c1nc2c(C)cccn2c(=O)c1/C=C1\\SC(=S)N(C(C)CC)C1=O (stereo unspecified)"
group_label = "f"

[[record]]
molecule = "O=C(NCC(=O)N1CCN(c2ccccc2O)CC1)c1ccc2ccccc2c1"
group_label = "f"

[[record]]
molecule = "O=C(CN1CCOCC1)Nc1ccccc1"
group_label = "f"

[[record]]
molecule = "CN(CC1CCCO1)S(=O)(=O)c1ccc(C(=O)Nc2ccc([N+](=O)[O-])cc2)cc1 (stereo unspecified)"
group_label = "t"

[[record]]
molecule = "Cc1cc(C(=O)NC2CCCc3c2cnn3-c2cccc(C)c2C)c(C)o1 (stereo unspecified)"
group_label = "t"

[[record]]
molecule = "Cc1ccc(-n2nc3c(=O)n(C(C)C(=O)NCc4ccc5c(c4)OCO5)nc(C)c3c2C)cc1 (stereo unspecified)"
group_label = "f"

[[record]]
molecule = "O=C1CCC(C(=O)N2CCN(c3ccccc3Cl)CC2)CN1CC1CCCCC1 (stereo unspecified)"
group_label = "f"

[[record]]
molecule = "COc1ccc(C(=O)NC2CCCc3c2cnn3-c2cccc(C)c2C)c(OC)n1 (stereo unspecified)"
group_label = "f"

[[record]]
molecule = "Cc1cccc(NC(=O)c2ccc(S(=O)(=O)N(C)CC3CCCO3)cc2)c1C (stereo unspecified)"
group_label = "f"

[[record]]
molecule = "CC(C)c1nc(SCC(=O)Nc2cccc(C(=O)O)c2)c2c3c(sc2n1)CCCC3"
group_label = "t"

[[record]]
molecule = "Cn1nccc1C(=O)NC1CCCc2c1cnn2-c1ccccc1F (stereo unspecified)"
group_label = "f"

[[record]]
molecule = "CCOC(=O)c1cccc(NC(=O)CCc2nnc3ccc(N4CCOCC4)nn23)c1"
group_label = "f"

[[record]]
molecule = "Cc1ccc(-c2csc(NC(=O)Cc3cccs3)n2)cc1C"
group_label = "f"

[[record]]
molecule = "COc1ccc(NC(=O)CN2C(=O)COc3ccc(S(=O)(=O)N4CCOCC4)cc32)c(OC)c1"
group_label = "f"

[[record]]
molecule = "CCOC(=O)C1=C(C)OC(N)=C(C#N)C1c1cncc(-c2ccc(F)cc2)c1 (stereo unspecified)"
group_label = "f"

[[record]]
molecule = "COc1ccccc1CNC(=O)[C@@H]1CCCN1C(=O)[C@@H]1Cc2ccccc2CN1C(=O)OC(C)(C)C"
group_label = "f"

[[record]]
molecule = "CC(C)(COC(=O)Nc1ccccc1)COC(=O)Nc1ccccc1"
group_label = "t"

